- Target Desc: T1, human IL-23 (IL-23-His-Biotin, Akesobio, 20161209) (human, UniProt Q9NPF7 20-189; P29460 23-328)
- T1 construct: His-tagged and biotinylated; also called human IL23-His-Biotin
- T1 sequence (looked up) 1: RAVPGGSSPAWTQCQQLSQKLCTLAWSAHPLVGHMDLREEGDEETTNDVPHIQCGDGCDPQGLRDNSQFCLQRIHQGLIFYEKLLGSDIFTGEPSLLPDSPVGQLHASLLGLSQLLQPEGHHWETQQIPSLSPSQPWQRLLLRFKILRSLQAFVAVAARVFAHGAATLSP
- T1 sequence (looked up) 2: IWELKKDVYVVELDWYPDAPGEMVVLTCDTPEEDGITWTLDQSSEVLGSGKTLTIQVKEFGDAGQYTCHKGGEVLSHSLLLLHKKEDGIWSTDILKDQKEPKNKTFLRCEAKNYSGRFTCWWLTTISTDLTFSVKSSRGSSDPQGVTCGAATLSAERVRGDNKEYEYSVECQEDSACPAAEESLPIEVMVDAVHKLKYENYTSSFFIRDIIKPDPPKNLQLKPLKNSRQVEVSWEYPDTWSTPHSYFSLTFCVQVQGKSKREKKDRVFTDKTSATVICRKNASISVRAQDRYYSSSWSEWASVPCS
- Procedure Details: FACS competition, IL-23-His-Biotin 2 µg/mL on 293T-IL-12RB1&IL-23R cells, antibody 0.01 µg/mL
Attribute Measured: MFI
The answer should be a number; do not append a unit.

Worked cases, MFI given:
Binder	MFI
ustekinumab (trade name Stelara) (antibody, V domains shown) VH: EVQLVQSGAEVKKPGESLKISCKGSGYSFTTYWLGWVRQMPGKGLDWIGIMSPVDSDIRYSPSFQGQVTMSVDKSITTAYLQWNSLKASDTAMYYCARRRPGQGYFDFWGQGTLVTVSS VL: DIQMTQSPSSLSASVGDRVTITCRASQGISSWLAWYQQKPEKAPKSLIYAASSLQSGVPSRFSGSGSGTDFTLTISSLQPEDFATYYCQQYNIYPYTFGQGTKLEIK	219
H5L10 (antibody, human IgG1, kappa, V domains shown, IgG1/kappa) VH: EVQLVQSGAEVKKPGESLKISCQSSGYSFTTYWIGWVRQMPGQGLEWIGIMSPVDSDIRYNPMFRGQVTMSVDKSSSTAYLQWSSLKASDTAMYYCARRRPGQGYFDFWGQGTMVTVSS VL: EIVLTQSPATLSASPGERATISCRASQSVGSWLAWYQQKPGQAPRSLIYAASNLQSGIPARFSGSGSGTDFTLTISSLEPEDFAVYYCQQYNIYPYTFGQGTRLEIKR	223

Query: Consider the binder shown here: H5L12 (antibody, human IgG1, kappa, V domains shown, IgG1/kappa) VH: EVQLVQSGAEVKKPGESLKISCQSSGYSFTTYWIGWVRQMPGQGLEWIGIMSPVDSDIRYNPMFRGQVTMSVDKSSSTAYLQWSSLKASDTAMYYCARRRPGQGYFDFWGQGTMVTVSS VL: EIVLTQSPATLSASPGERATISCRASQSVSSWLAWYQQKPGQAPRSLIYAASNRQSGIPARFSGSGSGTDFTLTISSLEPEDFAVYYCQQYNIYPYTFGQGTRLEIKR What is its recorded MFI?
Response: 221

The measurements presented in this section are drawn from patent US20260217813A1.
